Biological target: Luciferin 4-monooxygenase (Photinus pyralis) (UniProt P08659)
Sequence (P08659 whole entry, looked up): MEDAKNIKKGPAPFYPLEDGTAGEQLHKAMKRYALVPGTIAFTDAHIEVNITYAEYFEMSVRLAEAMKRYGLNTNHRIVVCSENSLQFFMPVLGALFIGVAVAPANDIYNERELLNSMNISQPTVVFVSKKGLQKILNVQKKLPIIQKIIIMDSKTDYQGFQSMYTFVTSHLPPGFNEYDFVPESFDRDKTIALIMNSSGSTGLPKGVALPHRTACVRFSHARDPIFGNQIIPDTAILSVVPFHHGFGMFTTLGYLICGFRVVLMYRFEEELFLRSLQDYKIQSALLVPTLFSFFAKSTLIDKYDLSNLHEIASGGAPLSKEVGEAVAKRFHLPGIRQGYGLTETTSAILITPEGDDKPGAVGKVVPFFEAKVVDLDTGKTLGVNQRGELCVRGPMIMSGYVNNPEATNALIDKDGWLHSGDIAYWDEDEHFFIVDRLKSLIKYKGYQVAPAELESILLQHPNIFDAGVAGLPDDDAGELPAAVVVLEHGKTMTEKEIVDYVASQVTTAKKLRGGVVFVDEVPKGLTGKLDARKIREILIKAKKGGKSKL
Test: qHTS assay to identify small molecule inhibitors of firefly luciferase (AID 1224835); also: nearly all actives have a fitted effect of over 25% in size
Settings: purified P. pyralis luciferase, luminescence inhibition; series mostly up to 115 µM
Inconclusive results are not listed. The source made the active and inactive calls. Calls follow the shape of the dose curve; as a rule, active = well fitted inhibition curve with a large enough effect in the repeat runs; inconclusive = weak or mixed curves; inactive = flat fitted curve, though single readings scatter.
// classify into YES for active, NO for inactive

Query: recorded result category for CC(C)Cc1ccc(CC(=O)O)cc1 in this test
NO

Query: recorded result category for CC12CC3CC(C)(C1)CC(N)(C3)C2 in this test
NO

Query: recorded result category for CCN(CC)C(=O)N1CCN(C)CC1 in this test
NO

Query: recorded result category for CCCCC[C@H](O)/C=C/[C@H]1[C@H](O)CC(=O)[C@@H]1C/C=C\CCCC(=O)O in this test
NO

Query: recorded result category for CCC(=O)OCc1ccc(OC)cc1 in this test
NO

Query: recorded result category for CC(=O)OCC1=C(C(=O)O)N2C(=O)[C@@H](NC(=O)CSc3ccncc3)[C@H]2SC1 in this test
NO

Query: recorded result category for CCN(Cc1cccc(S(=O)(=O)O)c1)c1ccc(C(=C2C=CC(=[N+](CC)Cc3cccc(S(=O)(=O)O)c3)C=C2)c2ccccc2S(=O)(=O)[O-])cc1 in this test
YES

Query: recorded result category for CC/C=C\C/C=C\C/C=C\CCCCCCCC(=O)OCC in this test
NO

Query: recorded result category for CCCCCCCC/C=C/C(=O)O in this test
NO

Query: recorded result category for CC(C)(C)CCCCCCOC(=O)c1ccccc1C(=O)OCCCCCCC(C)(C)C in this test
NO

Query: recorded result category for O=C(c1ccccc1)C1CCC1 in this test
NO

Query: recorded result category for O=c1[nH][nH]c(=O)c2cc([N+](=O)[O-])ccc12 in this test
NO
